target: CRBN truncate (318-426) (Homo sapiens (Human), UniProt Q96SW2); assay: Measurement of molecular interactions using surface plasmon resonance (SPR), Biacore T200; details: 25° C., immobilized CRBN truncate, upper limit of measurement 200 μM
Sequence (Q96SW2 318-426): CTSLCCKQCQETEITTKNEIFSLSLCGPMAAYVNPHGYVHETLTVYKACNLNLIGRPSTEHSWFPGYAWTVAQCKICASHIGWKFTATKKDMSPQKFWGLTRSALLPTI
pKd: −log10 of the molar value.
Quantity measured: pKd

Form field pKd, entry Cn1c(=O)c(=O)n(C2CCCC(=O)NC2=O)c2ccccc21 (centres unmarked) [Example 259] : ≤ 4.00

So for CC1(c2cccc(N)c2)CCCC(=O)NC1=O (centres unmarked) [Example 133] , the logged pKd turned out to be ≤ 4.00

Item: CC(C)(C)OC(=O)CCCCCNc1ccc(C(=O)N2CCC3(CCCC(=O)NC3=O)C2)cc1 (centres unmarked) [Example 300] | pKd: > 4.30

get_value(item= O=C1CCCC(n2ncc(-c3ccccc3)cc2=O)C(=O)N1 (centres unmarked) [Example 247] , readout=pKd) returns ≤ 4.00

compound CC(=O)Nc1ccc(N2CCC3(CCCC(=O)NC3=O)C2)c(F)c1 (centres unmarked) [Example 88] , pKd observed: ≤ 4.00

====

Assign Kd to each entry below.
biological target: CRBN truncate (318-426) (Homo sapiens (Human), UniProt Q96SW2); experiment: Measurement of molecular interactions using surface plasmon resonance (SPR), Biacore T200; conditions: 25° C., immobilized CRBN truncate, upper limit of measurement 200 μM

Value (Kd, CRBN truncate (318-426) (Homo sapiens (Human), UniProt Q96SW2)) for record CCOC(=O)c1cc(N2CCC3(CCCC(=O)NC3=O)C2)ncc1C(F)(F)F (stereo not drawn) [Example 40] = ≥ 100 µM

Given the compound CC(C)(C)OC(=O)c1ccc(N2CCC3(CC=CC(=O)NC3=O)C2)nc1 (stereo not drawn) [Example 131] and test system CRBN truncate (318-426) (Homo sapiens (Human), UniProt Q96SW2), the measured Kd is ≥ 100 µM

Entry COc1cccc2nn(C3CCCC(=O)NC3=O)nc12 (stereo not drawn) [Example 256] , tested on CRBN truncate (318-426) (Homo sapiens (Human), UniProt Q96SW2), has a reported Kd of ≥ 100 µM

The measured Kd that Cc1ccc(NC(=O)NCCCn2c(=O)n(C3CCCC(=O)NC3=O)c3ccccc32)cc1Cl (stereo not drawn) [Example 202] showed for CRBN truncate (318-426) (Homo sapiens (Human), UniProt Q96SW2) is ≥ 100 µM

Lab note: compound Cn1ccc2c(N3CCC4(CCCC(=O)NC4=O)C3)ncnc21 (stereo not drawn) [Example 37] tested on CRBN truncate (318-426) (Homo sapiens (Human), UniProt Q96SW2); recorded Kd was ≥ 100 µM

Bench note, CRBN truncate (318-426) (Homo sapiens (Human), UniProt Q96SW2): entry CC(C)(C)OC(=O)NCCCn1c(=O)n(C2CCCC(=O)NC2=O)c2ccccc21 (stereo not drawn) [Example 196] , its Kd = < 50 µM

CC(C)(C)OC(=O)c1ccc(N2CCCC3(CCCC(=O)NC3=O)CCC2)nc1 [Example 56] on CRBN truncate (318-426) (Homo sapiens (Human), UniProt Q96SW2) gives Kd = 50 to 100 µM

Reported Kd (CRBN truncate (318-426) (Homo sapiens (Human), UniProt Q96SW2)) for entry CC(=O)Nc1cccc(C2(C)CCCC(=O)NC2=O)c1 (stereo not drawn) [Example 134] is 50 to 100 µM

Entry O=C1CCC(N2C(=O)CC3(CN(c4ccc([N+](=O)[O-])cc4)C3)C2=O)C(=O)N1 (stereo not drawn) [Example 232] ; assay system CRBN truncate (318-426) (Homo sapiens (Human), UniProt Q96SW2); Kd recorded at 50 to 100 µM

====

target: CRBN truncate (318-426) (Homo sapiens (Human), UniProt Q96SW2); test: Measurement of molecular interactions using surface plasmon resonance (SPR), Biacore T200; settings: 25° C., immobilized CRBN truncate, upper limit of measurement 200 μM
Quantity measured: Kd

Form: compound = CCOC(=O)c1ccc2nc(N3CCC4(CCCC(=O)NC4=O)C3)sc2c1 (stereo not shown) [Example 73] ; Kd = < 50 µM

So, CC(C)(C)OC(=O)c1ccnc(N2CCC3(CCCC(=O)NC3=O)C2)c1 (stereo not shown) [Example 91] ? Its Kd was 50 to 100 µM

The compound identified as CC(C)(C)OC(=O)c1ccc(N2CCC3(CCCC(=O)NC3=O)C2)nn1 (stereo not shown) [Example 184] registered its Kd at ≥ 100 µM

Memo: Cc1sc2c(c1C)C(c1ccc(Cl)cc1)=N[C@@H](CC(=O)NCCCCCCCCn1ccc3c(N4CCC5(CCCC(=O)NC5=O)C4)ncnc31)c1nnc(C)n1-2 (stereo partly shown) [Example 319] , reported Kd: < 50 µM

====

target: CRBN truncate (318-426) (Homo sapiens (Human)); test: Measurement of molecular interactions using surface plasmon resonance (SPR), Biacore T200; settings: 25° C., immobilized CRBN truncate, upper limit of measurement 200 μM
pKd: −log10 of the molar value.
Kindly state pKd for each of the entries shown.

Summary line: Cc1sc2c(c1C)C(c1ccc(Cl)cc1)=N[C@@H](CC(=O)NCCCCCCCNC(=O)Cn1c(=O)c(=O)n(C3CCCC(=O)NC3=O)c3ccccc31)c1nnc(C)n1-2 (stereo partly shown) [Example 350] , CRBN truncate (318-426) (Homo sapiens (Human)), reported pKd = > 4.30

Field pKd (system: CRBN truncate (318-426) (Homo sapiens (Human))) for entry CC(C)(C)OC(=O)c1cnc(N2CCC3(CCCC(=O)NC3=O)C2)cn1 (stereo not shown) [Example 35] = ≤ 4.00

The value of pKd recorded for O=C1NC(=O)C2(Nc3cccc(Br)c3)CCC1CC2 [Example 165] when tested on CRBN truncate (318-426) (Homo sapiens (Human)) reads ≤ 4.00

Param item: CC(C)(C)OC(=O)NCCCCCCc1cccc(C(=O)N2CCC3(CCCC(=O)NC3=O)C2)c1 (stereo not shown) [Example 158] ; param system: CRBN truncate (318-426) (Homo sapiens (Human)); output pKd: 4.00 to 4.30

Field pKd (CRBN truncate (318-426) (Homo sapiens (Human))), entry Cc1sc2c(c1C)C(c1ccc(Cl)cc1)=N[C@@H](CC(=O)NCCCCCCCNc1ccc(N3CCC4(CCCC(=O)NC4=O)CC3=O)cc1)c1nnc(C)n1-2 (stereo partly shown) [Example 314] : > 4.30

Assay CRBN truncate (318-426) (Homo sapiens (Human)), sample CC(C)(C)OC(=O)COc1cccc(C(=O)NC2CCCC(=O)NC2=O)c1F (stereo not shown) [Example 67] , pKd read: ≤ 4.00

Lab note: molecule O=C1CCCC(NS(=O)(=O)c2cccc(Cl)c2)C(=O)N1 (stereo not shown) [Example 9] tested on CRBN truncate (318-426) (Homo sapiens (Human)); recorded pKd was ≤ 4.00

====

target: CRBN truncate (318-426) (Homo sapiens (Human), UniProt Q96SW2); assay: Measurement of molecular interactions using surface plasmon resonance (SPR), Biacore T200; details: 25° C., immobilized CRBN truncate, upper limit of measurement 200 μM
pKd: −log10 of the molar value.
Kindly supply the reported pKd values for the records listed here.

Noted for O=C1CCCC(n2nnc3ccccc32)C(=O)N1 (stereo not drawn) [Example 250, 3-(Benzotriazol-1-yl)azepine 2,7-dione] : its pKd reads ≤ 4.00

Reported pKd for C[C@@H]1Cc2c([nH]c3ccccc23)[C@@H](c2cnc(N3CCC(CN(C)CCCCCCCc4ccc(C(=O)N5CCC6(CCCC(=O)NC6=O)C5)cc4)CC3)nc2)N1CC(C)(C)F (stereo partly drawn) was > 4.30

pKd for CN(C1CCCC(=O)NC1=O)S(=O)(=O)c1ccc(CNC(=O)OC(C)(C)C)cc1 (stereo not drawn) is ≤ 4.00

====

Answer each item with its documented Kd.
target: CRBN truncate (318-426) (Homo sapiens (Human)); assay: Measurement of molecular interactions using surface plasmon resonance (SPR), Biacore T200; details: 25° C., immobilized CRBN truncate, upper limit of measurement 200 μM

For reference, reported Kd for CC1(N2CCCC(=O)NC2=O)C(=O)N(CC(=O)O)c2ccccc21 (stereo not shown) [Example 292] stands at ≥ 100 µM

The value of Kd measured for the compound CN1C(=O)C(C)(N2C=CCC(=O)NC2=O)c2cccc(/C=C/C(=O)OC(C)(C)C)c21 (stereo not shown) [Example 289] turned out to be < 50 µM

For this compound ( CN1C(=O)[C@H](N2C=CCC(=O)NC2=O)C[C@H]1c1ccc(/C=C/C(=O)OC(C)(C)C)cc1 (relative stereo) [Example 290] ), measured Kd is ≥ 100 µM

Lab note: measured Kd of CC(C)(C)OC(=O)NCCCCCCCn1c(=O)n(C2CCCC(=O)NC2=O)c2ccccc21 (stereo not shown) [Example 198] was < 50 µM
